test target: Torsin-1A-interacting protein 1 (Homo sapiens) (UniProt Q5JTV8)
Sequence (Q5JTV8 whole entry, looked up): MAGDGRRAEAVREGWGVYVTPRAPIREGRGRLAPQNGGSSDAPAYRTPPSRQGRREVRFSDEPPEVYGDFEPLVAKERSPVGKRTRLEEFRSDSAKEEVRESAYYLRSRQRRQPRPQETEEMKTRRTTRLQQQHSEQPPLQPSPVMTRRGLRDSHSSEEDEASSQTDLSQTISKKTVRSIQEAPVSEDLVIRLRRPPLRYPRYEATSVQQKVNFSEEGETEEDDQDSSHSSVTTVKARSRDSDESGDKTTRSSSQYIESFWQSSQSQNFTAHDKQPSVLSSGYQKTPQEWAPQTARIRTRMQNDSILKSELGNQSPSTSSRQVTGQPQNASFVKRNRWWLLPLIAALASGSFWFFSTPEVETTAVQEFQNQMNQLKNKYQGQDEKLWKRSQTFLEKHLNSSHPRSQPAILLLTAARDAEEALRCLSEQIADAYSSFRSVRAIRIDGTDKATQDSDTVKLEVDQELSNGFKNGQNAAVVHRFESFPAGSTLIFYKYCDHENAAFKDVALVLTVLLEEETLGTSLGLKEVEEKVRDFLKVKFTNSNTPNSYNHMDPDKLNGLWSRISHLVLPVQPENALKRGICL
assay: LAP1 binders from COS7 cell lysate, primary screen, small-molecule microarray, 635/667 nm fluorescence (AID 1116)
experimental parameters: COS7-hLAP1 lysate binding, 635 nm fluorescence, higher = more signal
quantity: composite z-score

COc1ccc(CN(C2=CC[C@@]3(C(N)=O)C(=O)C(Cl)=C(Cl)C(=O)[C@@]3(C#N)C2)S(=O)(=O)c2ccc(Br)cc2)cc1 :: 1.02
CC(c1ccccc1)C(O)C1C=CC2C(=O)N(c3ccccc3)C(=O)C2N1Nc1ccc([N+](=O)[O-])cc1 (configuration not stated) :: 0.464
CC1CC/C=C\[C@H]2OC34C=CCN(C(C)C)C(=O)[C@H]3N(CCCCCCO)C(=O)[C@@H]4C2C(=O)O1 (some centres not stated) :: -0.673
O=C1O[C@H](c2ccccc2)[C@H](c2ccccc2)N2[C@H]1[C@@H](C(=O)Nc1nc3ccccc3s1)[C@]1(C(=O)Nc3ccc(C#CC4(O)CCCCCC4)cc31)[C@H]2c1ccccc1OCCO :: 1.34
Cn1cccc1C(O)C1C=CC2C(=O)NC(=O)C2N1Nc1ccc(Cl)cc1Cl (configuration not stated) :: 2.08
O=C1O[C@H](c2ccccc2)[C@H](c2ccccc2)N2[C@H]1[C@@H](C(=O)O)[C@]1(C(=O)Nc3ccc(C#CC4=CCCCC4)cc31)[C@H]2c1ccc(O)cc1 :: 0.499
CCOC(=O)C[C@H]1[C@H](OC(=O)Cc2ccc3c(c2)OCO3)[C@@H](NC(=O)Cc2ccc(OC)cc2)c2cc(OCCCO)ccc2N1C(=O)c1ccc2ccccc2n1 :: 0.526

---

System: Human papillomavirus type 1a protein E7 (residues 44-93)
assay: HPV1a E7 fragment binders on microarrays, primary screen, biochemical, small-molecule microarray, residues 44-93, 635 nm fluorescence (AID 1108);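 note: E7 fragment applied at 1 µg/mL in TBST for 1 h at 4 C; score combines spot fluorescence with its signal to noise ratio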
experimental parameters: small-molecule microarray binding, fluorescence 635 nm; higher = more signal
Decision: composite z-score >= 1 yields t, all other cases yield f.

COc1ccc([Si](C)(C)[C@H]2[C@H](CCn3cc([C@H](O)c4ccccc4)nn3)O[C@@]3(C(=O)N(Cc4ccc(N5C(=O)c6cccc7cccc5c67)cc4)c4ccccc43)[C@@H]2C)cc1 :: f
C=CCOC(=O)[C@H]1[C@@H]2C(=O)O[C@@H](c3ccccc3)[C@@H](c3ccccc3)N2[C@@H](c2ccc(OCCOC(=O)[C@@H]3C[C@@H]4C(=O)N5CCC[C@H]5C(=O)N4[C@@H]3c3ccc(O)cc3)cc2)[C@]12C(=O)Nc1ccc(I)cc12 :: f
CC(C)C(CO)N1C(=O)[C@@H]2C3C(=O)OCCC/C=C\[C@H]3OC23C=CCN(C(C)(C)C)C(=O)[C@@H]13 (some centres not stated) :: f
COc1ccc(CCN2C(=O)[C@@]3(Cc4ccccc42)c2ccccc2C(=O)N(Cc2ccccc2OC)[C@H]3c2ccc(CO)cc2)cc1 :: f
C=C(C)[C@@H]1CC=C(C(O)C2C=CC3C(=O)N(c4ccccc4)C(=O)C3N2Nc2ccccc2F)CC1 (some centres not stated) :: t
COCCOC(=O)N1C(=O)[C@@]2(c3cc(C#CCC(C(=O)OC)C(=O)OC)ccc31)[C@H](C(=O)N1CCc3cc(OC)c(OC)cc3C1)[C@H]1C(=O)O[C@H](c3ccccc3)[C@H](c3ccccc3)N1[C@@H]2c1ccc(OCCO)cc1 :: t
COCCOC(=O)N1C(=O)[C@@]2(c3cc(C#CC4(O)CCCCCC4)ccc31)[C@H](c1ccc(O)cc1)N1[C@H](c3ccccc3)[C@H](c3ccccc3)OC(=O)[C@H]1[C@@H]2C(=O)NC[C@H](O)c1ccccc1 :: t
CCCCCCCCCCC(O)C1C=CC2C(=O)N(C)C(=O)C2N1NC(=O)OC(C)(C)C (configuration not stated) :: t
NCCCCCNC(=O)[C@@H]1C[C@@H]2C(=O)NCC(=O)N2[C@@H]1c1cccc(OCCO)c1 :: t
Cc1ccc(S[C@]2(C(=O)O)CC(=O)N(Cc3cc(C(F)(F)F)cc(C(F)(F)F)c3)[C@@H]2c2ccc(CO)cc2)cc1 :: f
COC(=O)C(CC#Cc1ccc2c(c1)[C@]1(C(=O)N2)[C@H](C(=O)N2CCN(c3ncccn3)CC2)[C@H]2C(=O)O[C@H](c3ccccc3)[C@H](c3ccccc3)N2[C@@H]1c1ccc(OCCO)cc1)C(=O)OC :: t
CC(C)[Si](C#C[Si](C(C)C)(C(C)C)C(C)C)(O[C@H](C)c1cn([C@H](CO)Cc2ccccc2)nn1)C(C)C :: f

---

Test system: glycogen synthase kinase-3 (GSK3A per assay name; protocol says GSK3B)
assay: GSK3 binders on small-molecule microarrays, primary screen, biochemical, small-molecule microarray, 635 nm fluorescence, GSK3A (AID 1103); note: the record names both GSK3A and GSK3B
experimental parameters: small-molecule microarray binding, fluorescence 635 nm; higher = more signal
quantity: composite z-score

C=CCC(OC(C)=O)[C@@H]1[C@@H](N(Cc2cccc3ccccc23)C(=O)c2cccc3ccccc23)c2cc(OCCCO)ccc2N1C(=O)c1ccc(-c2ccccc2)cc1 (stereo partly drawn) :: 0.0512
COC(=O)[C@@]1(Cc2ccc(F)cc2)[C@H]2c3cc(C(=O)N(C)C)n(Cc4cc(F)cc5c4OCOC5)c3C[C@H]2CN1C(=O)c1ccccc1 :: 0.427
COc1ccc([Si](C)(C)[C@H]2[C@H](CC(=O)N(CCO)Cc3ccccc3)O[C@@]3(C(=O)N(Cc4cccc(N5CCOC5=O)c4)c4ccccc43)[C@@H]2C)cc1 :: 0.616
CCOC(=O)C1CCCCN1 (stereo not drawn) :: 0.682
O=C(NCC(F)(F)F)[C@@H]1c2ccccc2C(=O)N(Cc2ccc(OC(F)(F)F)cc2)[C@H]1c1ccc(CO)cc1 :: -0.285
O=C1c2ccccc2[C@](Cc2ccccc2I)(C(=O)NCC(F)(F)F)[C@H](c2ccc(CO)cc2)N1C1CCCCC1 :: 0.884
C=CCNC(=O)[C@@H]1[C@H]2C(=O)O[C@H](c3ccccc3)[C@H](c3ccccc3)N2[C@H](c2ccc(O)cc2)[C@@]12C(=O)N(C(=O)OCCOC)c1ccc(C#CC3(O)CCCCCC3)cc12 :: -1.44
CN(C)CCCNC(=O)[C@@]1(c2ccc([N+](=O)[O-])cc2)CC(=O)N(CC23CC4CC(CC(C4)C2)C3)[C@@H]1c1ccc(CO)cc1I :: 0.556
COC(=O)C(CC#Cc1ccc2c(c1)[C@]1(C(=O)N2)[C@H](C(=O)N2CCN(c3ncccn3)CC2)[C@H]2C(=O)O[C@H](c3ccccc3)[C@H](c3ccccc3)N2[C@@H]1c1ccc(OCCO)cc1)C(=O)OC :: 0.994
C=C(CCCC)/C(=C/C[C@@H](OC(=O)c1ccncc1)c1ccccc1OCCO)c1cnc2ccccc2c1 :: 1.15
COCCOC(=O)N1C(=O)[C@@]2(c3cc(C#Cc4ccc(OC)cc4)ccc31)[C@H](c1ccc(O)cc1)N1[C@H](c3ccccc3)[C@H](c3ccccc3)OC(=O)[C@H]1[C@@H]2C(=O)N1CCCCCCC1 :: -0.151
COc1cc(OC)c(C(O)C2C=CC3C(=O)N(C)C(=O)C3N2NC(=O)OC(C)(C)C)cc1Br (stereo not drawn) :: 1.33
O=C(NCc1ccccc1)[C@@H]1c2ccccc2C(=O)N(Cc2ccccc2C(F)(F)F)[C@H]1c1ccc(CO)cc1 :: -0.076

---

Measured composite Z-score accompanies every entry in the list below.
assay: small-molecule microarray binders of probe aXIP, primary screen, biochemical, NeuroSMM set, 635/667 nm fluorescence (AID 1119);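 note: probe is the protein aXip251-270 applied at 1 µg/mL to compound-printed slides; binding of probe to printed compounds measured as 667 nm fluorescence plus signal to noise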
experimental parameters: higher = more signal, called active from +8 up or from −8 down
quantity: composite Z-score

O=C1NC(=O)C2C1C=CC(C(O)c1cccc3ccccc13)N2Nc1ccc(Cl)cc1Cl (centres undefined) :: -0.288
C=CC[C@]1(C(=O)NCCN2CCOCC2)N=C(c2ccc(OCCCO)cc2)O[C@H]1c1ccccc1CN=[N+]=[N-] :: 0.363
C=C(CCCC)/C(=C/C[C@@H](OC(=O)c1ccncc1)c1ccccc1OCCO)c1cnc2ccccc2c1 :: -0.869
O=C(NCC(F)(F)F)[C@@H]1c2ccccc2C(=O)N(Cc2cc(F)cc(C(F)(F)F)c2)[C@H]1c1ccc(CO)cc1 :: 0.57

---

assay: basal RPMI8226 mitochondrial membrane potential changes, profiling panel, cell-based, JC-1 fluorescence, 24 h, 100 nL compound (AID 1169); note: test concentration not given here
experimental parameters: RPMI8226 myeloma, JC-1 mitochondrial potential fluorescence, higher = more signal
Measured z-score accompanies every entry in the list below.
quantity: z-score

O=C1O[C@H](c2ccccc2)[C@H](c2ccccc2)N2[C@H]1[C@@H](C(=O)Nc1nc3ccccc3s1)[C@]1(C(=O)Nc3ccc(C#CCCO)cc31)[C@H]2c1ccc(O)cc1 :: -1.25
Cc1cc(C)c(C(O)C2C=CC3C(=O)NC(=O)C3N2Nc2ccc(Cl)cc2Cl)c(C)c1 (stereo unspecified) :: -1.02
COCCOC(=O)N1C(=O)[C@@]2(c3cc(C#CC4=CCCCC4)ccc31)[C@H](c1ccccc1OCCO)N1[C@H](c3ccccc3)[C@H](c3ccccc3)OC(=O)[C@H]1[C@@H]2C(=O)N1CCCCCCC1 :: -0.934
COCCCNC(=O)[C@]1(CCS(=O)(=O)c2ccccc2)N=C(c2ccc(OCCCO)cc2)O[C@@H]1c1ccccc1N=[N+]=[N-] :: -0.986
C=C(COC)/C(=C/C[C@H](OC(=O)c1ccncc1)c1ccccc1OCCO)c1cnc2ccccc2c1 :: -0.32
C[C@@H]1NC(=O)[C@@]23C(=O)N[C@@H](Cc4ccccc4)C2[C@H](C)[C@@]2(C)O[C@H]2C3/C=C/C/C=C\CNC(=O)[C@@H]2CCCN2C1=O (stereo partly specified) :: 0.632

Ref: PubChem BioAssay
